Test system: DU-145
Test: NCI tumour cell line growth inhibition, 48 h
The source made the active and inactive calls. Rule as the data show it: active = GI50 up to about 1.1 µM and inactive = higher.
In this section we review reported GI50 values for a set of compounds.

{"columns": ["Compound", "GI50"],
 "data": [
  ["CC(=O)c1cccc(Nc2c3ccccc3nc3occc23)c1", "11 µM (inactive)"],
  ["CCCCc1ccc(-n2sc3ncccc3c2=O)cc1", "21 µM (inactive)"],
  ["Nc1ccc(S2(c3ccc(N)cc3)C=C(c3ccccc3)C(c3ccccc3)=C2)cc1", "> 38.4 µM (inactive)"],
  ["CC1=NNC(=O)C1C1CC(c2c[nH]c3ccccc23)=NN(c2ccccc2)C1=O (stereo unspecified)", "> 100 µM (inactive)"],
  ["COc1ccc(C(O)c2nccn2C)c(OC)c1 (stereo unspecified)", "> 100 µM (inactive)"],
  ["O=S(=O)(/N=C(\\NO)Nc1ccc(Cl)cc1)c1ccc(-c2ccccn2)s1", "> 100 µM (inactive)"],
  ["COc1ccccc1Cn1nc(OC)c2cc([N+](=O)[O-])ccc21", "> 100 µM (inactive)"],
  ["Oc1ccc([I+]c2ccccc2)cc1O", "57.8 µM (inactive)"],
  ["CCN(CC)CCSc1nc(-c2c[nH]c3nc(C)ccc3c2=O)n[nH]1", "> 100 µM (inactive)"],
  ["CCCCCCCCCCCCCCC(C(=O)[O-])[n+]1ccccc1 (stereo unspecified)", "> 100 µM (inactive)"],
  ["COc1c(OC)c(OC)c2c(=O)cc(-c3ccc(OC(C)C)cc3)oc2c1OC", "26.1 µM (inactive)"]
]}

* * *

Tested on: DMS-273
Experiment: NCI tumour cell line growth inhibition, 48 h
Activity calls are given as the source filed them. No stated cut-off is given here; in the data, active = GI50 up to about 1.1 µM and inactive = higher. Non-standard residues stand in square brackets, D forms with d. Residues, ends and D or L forms follow the SMILES beside them. *: point of attachment. NMeF = CN[CH](Cc1ccccc1)C(=O)O; NMeV = CN[CH](C(=O)O)C(C)C; Boc = CC(C)(C)OC(=O)*

{"columns": ["Compound", "GI50"],
 "data": [
  ["CC(C)OP(=O)(OC(C)C)/C(=N/Nc1ccc([N+](=O)[O-])cc1)Nc1ccccc1", "25.3 µM (inactive)"],
  ["CC(C)C1CC[C@@H](C)C[C@@]1(O)CC(N)=O (stereo partly drawn)", "> 100 µM (inactive)"],
  ["COc1ccc(/N=C\\c2ccc(N(CCC#N)CCC#N)cc2)cc1", "31.4 µM (inactive)"],
  ["O=c1[nH]c2ccc([N+](=O)[O-])cc2nc1/C(=N/Nc1ccccc1)C(O)c1ccco1 (stereo not drawn)", "42.4 µM (inactive)"],
  ["Cc1ccc(NC(=O)C(=O)CC(=O)c2ccccc2)cc1C", "56.8 µM (inactive)"],
  ["C=CNC(=S)n1nc(-c2ccccc2NC(=O)C(F)(F)F)c(=O)n(C(=S)NC=C)c1=S", "26.8 µM (inactive)"],
  ["Cc1ccc(Nc2ccc(Nc3ccc(C)cc3)c3c2C(=O)c2c(O)ccc(O)c2C3=O)cc1", "> 100 µM (inactive)"],
  ["CO/C=C/c1cc2c(cc1C(OC)OC)OCO2", "30.3 µM (inactive)"],
  ["CC(C)C(NC(=O)OC(C)(C)C)C(=O)N(C)C(Cc1ccccc1)C(=O)N(C)C(C(=O)O)C(C)C (stereo not drawn) (Boc-Val-[NMeF]-[NMeV]-OH; configuration not given here)", "> 100 µM (inactive)"],
  ["N=C(N)NS(=O)(=O)c1ccc(Nc2c3ccccc3nc3c(C(=O)Nc4ccc(S(N)(=O)=O)cc4)ccc(Cl)c23)cc1", "> 100 µM (inactive)"],
  ["CCOC(=O)NC(=O)c1cn(C2CCCCC2)c(=O)n(C)c1=O", "> 100 µM (inactive)"],
  ["COC(=O)C1CC2c3c(c4ccccc4n3C)CC(C1=O)N2C (stereo not drawn)", "20.2 µM (inactive)"],
  ["COC(=O)C1=C(c2cc(OC)c(OC)c(OC)c2)OC(c2cc(OC)c(OC)c(OC)c2)C1COC(C)=O (stereo not drawn)", "25.6 µM (inactive)"],
  ["CN1CCCCC(C(O)(c2ccccc2)c2ccccc2)C1=O (stereo not drawn)", "44.1 µM (inactive)"],
  ["CN(C)CCNC(=O)c1cccc2cc([N+](=O)[O-])ccc12", "0.123 µM (active)"],
  ["Nc1nncc2c1ccn2C1OC(CO)C(O)C1O (stereo not drawn)", "> 100 µM (inactive)"],
  ["N=C(N)c1csc([C@@H]2O[C@H](CO)[C@@H](O)[C@H]2O)n1", "> 100 µM (inactive)"],
  ["O=C(NCCCCNc1cccccc1=O)OCc1ccccc1", "> 100 µM (inactive)"],
  ["CCCN(CCC)CCc1cc(C(C)=O)n(S(=O)(=O)c2ccc(C)cc2)c1", "> 100 µM (inactive)"],
  ["c1ccc(-c2[nH]c(-c3ccccc3)c(-c3cnccn3)c2-c2cnccn2)cc1", "> 100 µM (inactive)"],
  ["COc1cc(C2C(Cl)C(=O)N2NC(=O)c2ccc(NC(C)=O)cc2)ccc1O (stereo not drawn)", "> 100 µM (inactive)"],
  ["NNC(=S)N/N=C(\\c1nc2ccc(Cl)cc2nc1O)C(O)c1ccc(Cl)cc1Cl (stereo not drawn)", "> 100 µM (inactive)"],
  ["COc1cc(C(=O)C(CO)Oc2ccccc2OC)ccc1O (stereo not drawn)", "> 100 µM (inactive)"],
  ["CC(=O)Nc1ccc(C2CC(c3ccc([N+](=O)[O-])cc3)=Nc3ccccc3[S+]2[O-])cc1 (stereo not drawn)", "13.6 µM (inactive)"],
  ["O=S1(=O)OCCOS(=O)(=O)C1(Br)Cc1ccccc1", "> 100 µM (inactive)"],
  ["Cn1c(=O)nc2n(-c3ccc(Cl)c(C(F)(F)F)c3)c3ccccc3nc-2c1=O", "32.1 µM (inactive)"],
  ["CC(C)c1cc(C(C)C)c(S(=O)(=O)N=[N+]=[N-])c(C(C)C)c1", "94 µM (inactive)"],
  ["Nc1nc2c(nnn2C2C=C(CO)C(O)C2O)c(=O)[nH]1 (stereo not drawn)", "> 100 µM (inactive)"]
]}
